Cited source for all entries: patent US10071103B2

- Tested on: P. acnes MTCC 1951
- Format: cell-based, Propionibacterium acnes
- RUN_PARAMETERS: ratio against P. acnes
EXPERIMENTAL_READOUT: MPC/MIC
// no unit string in output, number only

| COMPOUND | EXPERIMENTAL_SYSTEM | OBS_VALUE |
| --- | --- | --- |
| N[C@@H]1CCCCN(c2c(F)cc3c(=O)c(C(=O)O)cn(C4CC4)c3c2Cl)C1 [Besifloxacin] | P. acnes MTCC 1951 | 4 |
| CC1CCc2c(N3CCC(O)CC3)c(F)cc3c(=O)c(C(=O)O)cn1c23 (stereo not shown) [Nadifloxacin] | P. acnes MTCC 1951 | 9.2 |

Below: the item to evaluate.
input: Name the recorded MPC/MIC of the item CC1Sc2c(C(=O)O)c(=O)c3cc(F)c(N4CCNCC4)cc3n21 (stereo not shown) [Ulifloxacin] in your answer.
output: 9.2
